- TESTED_SYSTEM: T1, PLCG1 C-terminal SH2 domain (human)
- T1 construct: PLCG1, human; source: bacterial expression, purified
- T1 sequence (P19174 whole entry, looked up): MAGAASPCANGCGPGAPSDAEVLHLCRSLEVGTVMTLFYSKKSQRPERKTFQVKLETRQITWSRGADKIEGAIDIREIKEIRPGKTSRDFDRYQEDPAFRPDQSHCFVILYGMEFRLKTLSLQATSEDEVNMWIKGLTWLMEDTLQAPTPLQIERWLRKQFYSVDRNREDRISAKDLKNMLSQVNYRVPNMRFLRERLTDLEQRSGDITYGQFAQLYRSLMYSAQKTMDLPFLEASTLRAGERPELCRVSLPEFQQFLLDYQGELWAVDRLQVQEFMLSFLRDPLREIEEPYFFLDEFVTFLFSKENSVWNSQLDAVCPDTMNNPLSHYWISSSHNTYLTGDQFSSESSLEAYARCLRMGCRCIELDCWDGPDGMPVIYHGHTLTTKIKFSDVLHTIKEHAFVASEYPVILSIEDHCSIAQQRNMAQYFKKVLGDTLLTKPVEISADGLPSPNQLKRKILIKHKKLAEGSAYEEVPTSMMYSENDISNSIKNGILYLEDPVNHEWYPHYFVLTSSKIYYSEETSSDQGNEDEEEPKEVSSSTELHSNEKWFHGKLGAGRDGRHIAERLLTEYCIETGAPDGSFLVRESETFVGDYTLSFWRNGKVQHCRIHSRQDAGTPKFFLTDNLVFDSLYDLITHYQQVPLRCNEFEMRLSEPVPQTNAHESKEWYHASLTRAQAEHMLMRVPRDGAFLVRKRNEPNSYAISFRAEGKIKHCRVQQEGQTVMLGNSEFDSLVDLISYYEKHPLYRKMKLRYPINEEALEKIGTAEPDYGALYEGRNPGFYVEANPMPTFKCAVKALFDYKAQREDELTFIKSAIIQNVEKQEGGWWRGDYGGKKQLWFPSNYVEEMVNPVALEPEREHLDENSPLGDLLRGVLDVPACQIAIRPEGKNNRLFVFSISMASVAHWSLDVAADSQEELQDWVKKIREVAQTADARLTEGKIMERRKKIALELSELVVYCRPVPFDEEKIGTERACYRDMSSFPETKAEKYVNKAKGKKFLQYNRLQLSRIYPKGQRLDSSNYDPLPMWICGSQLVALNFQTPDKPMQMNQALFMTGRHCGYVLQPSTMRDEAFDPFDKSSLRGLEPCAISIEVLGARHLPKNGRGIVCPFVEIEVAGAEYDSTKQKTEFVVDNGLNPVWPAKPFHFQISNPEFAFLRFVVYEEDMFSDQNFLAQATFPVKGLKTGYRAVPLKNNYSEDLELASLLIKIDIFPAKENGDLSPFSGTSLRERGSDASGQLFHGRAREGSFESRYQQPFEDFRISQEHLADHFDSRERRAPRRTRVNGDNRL
- PROTOCOL: SPR; Biacore 3000; 6X His SH2 proteins held on a Ni-NTA chip, dye-free peptides in solution, equilibrium
- CONDITION_DESCRIPTION: both partners purified
Non-standard residues stand in square brackets, D forms with d. No end group written: not given here. pY = N[C@@H](Cc1ccc(OP(=O)(O)O)cc1)C(=O)O
PARAMETER_MEASURED: pKd
# pKd = -log10(concentration in molar units)

Data request: Form field: reported pKd of PDPL[pY]EVMLKCW [MET pY1313 phosphopeptide, dye-free]
Data returned: 6.31

Data request: What value of measured pKd is listed for DPQD[pY]LLLINCQD [Gab1 pY183 phosphopeptide, dye-free] ?
Data returned: 6.84

Data request: I am curious: what pKd value has been reported for NNYV[pY]IDPTQLPD [KIT pY570 phosphopeptide, dye-free] ?
Data returned: 5.87

Taken from paper PMC3433420.
